- System: sedge, umbrella (small-flower umbrella sedge, Cyperus difformis)
- ASSAY EXPLANATION: Test B flooded paddy test
- Assay type: in vivo
- TEST CONDITIONS: Cyperus difformis, Flood, 250 g ai/ha; scale of 0 to 100 where 0 is no effect and 100 is complete control; read-out: Sedge, Umbrella plant response rating
QUANTITY MEASURED: pest or weed control at 250 g/ha (%)
Value expressed in %; do not type the unit.

Solved entries:
CSc1ccccc1NC(=O)[C@H]1C(=O)NC[C@@H]1c1cc(F)cc(Cl)c1: 0
CC(C)Oc1ccc([C@H]2CN(C)C(=O)[C@@H]2C(=O)Nc2ccccc2F)cc1: 0
CCOc1ccc([C@H]2CN(C)C(=O)[C@@H]2C(=O)Nc2cccc(F)c2F)cc1: 0
Cc1c(F)ccc([C@H]2CNC(=O)[C@@H]2C(=O)Nc2ccc(F)c(F)c2F)c1F: 0
CC(F)(F)c1cccc([C@H]2CNC(=O)[C@@H]2C(=O)Nc2ccc(F)cc2F)c1: 0
CN1C[C@H](c2cccc(COC(F)F)c2)[C@@H](C(=O)Nc2cccc(F)c2F)C1=O: 50

Request: Recorded pest or weed control at 250 g/ha of Cc1c(F)ccc([C@H]2CN(C)C(=O)[C@@H]2C(=O)Nc2ccc(F)cc2F)c1F , please.
Result: 0

Request: Look up pest or weed control at 250 g/ha: Cc1cc(C)cc([C@H]2CNC(=O)[C@@H]2C(=O)Nc2ccccc2F)c1
Result: 0

Request: GET /values?readout=pest or weed control at 250 g/ha&item= CN1CC[C@H](c2cccc(Cl)c2)[C@@H](C(=O)Nc2ccccc2S(C)(=O)=O)C1=O
Result: 0

Request: pest or weed control at 250 g/ha for COc1c(F)ccc([C@H]2CN(C)C(=O)[C@@H]2C(=O)Nc2ccccc2F)c1Cl ?
Result: 0

Request: Look at this compound and give its reported pest or weed control at 250 g/ha. O=C1NC[C@H](c2ccc3c(c2)CCO3)[C@H]1C(=O)Nc1cccc(F)c1F
Result: 0

====

Item-by-item account of Plant response rating, Ducksalad
- System: ducksalad (Heteranthera limosa)
- ASSAY EXPLANATION: Test B flooded paddy test
- Format: in vivo
- TEST CONDITIONS: Flood, 250 g ai/ha; 0 to 100 scale where 0 is no effect and 100 is complete control; 13 to 15 d
Answer with the value's number alone.

O=C1NCC(c2cccc(F)c2F)C1C(=O)Nc1cccc(F)c1F (centres unmarked): 95

Let's switch to this molecule now.
Request: // lookup Plant response rating, Ducksalad | system=ducksalad (Heteranthera limosa) | key= Cc1ccc(C2CNC(=O)C2C(=O)Nc2ccc(F)c(C)c2F)cc1F (centres unmarked)
Result: 85

====

- System: Kochia (Kochia scoparia)
- ASSAY EXPLANATION: Test A postemergence
- Type: in vivo
- TEST CONDITIONS: 125 g ai/ha, postemergence; visual injury rating on 0 to 100 scale (0 no effect, 100 complete control), approx. 10 d
Recorded Kochia plant response rating values for a group of molecules are listed next.
Would you mind answering with just the numeric figure?

CN1CC(c2cccc(Br)c2)C(C(=O)Nc2cccc(F)c2F)C1=O (stereo not drawn): 60
O=C1NCC(c2cccc(OCC(F)F)c2)C1C(=O)Nc1cccc(F)c1F (stereo not drawn): 0
O=C1NCC(c2cccc(F)c2F)C1C(=O)Nc1cccc(F)c1F (stereo not drawn): 0
CCc1ccc(C2CNC(=O)C2C(=O)Nc2ccccc2F)cc1 (stereo not drawn): 0
COCc1cccc(C2CNC(=O)C2C(=O)Nc2ccccc2F)c1 (stereo not drawn): 0

Field: next molecule
Request: Looking for the measured Kochia plant response rating of CS(=O)(=O)c1ccccc1NC(=O)C1C(=O)NCC1c1ccc(C2CC2)cc1 (racemic) , can you help?
Result: 0

====

- System: ryegrass, Italian (Italian ryegrass, Lolium multiflorum)
- ASSAY EXPLANATION: Test A postemergence
- Type: in vivo
- TEST CONDITIONS: 125 g ai/ha, postemergence; visual injury rating on 0 to 100 scale (0 no effect, 100 complete control), approx. 10 d
QUANTITY MEASURED: Ryegrass, Italian plant response rating
// response body must contain only the number

For orientation, consider the following solved cases.
O=C1NCC(c2ccc(C(F)(F)F)c(F)c2)C1C(=O)Nc1cccc(F)c1F (racemic): 40
CN1CC(c2ccc3c(c2)OC(F)(F)O3)C(C(=O)Nc2ccccc2S(C)(=O)=O)C1=O (stereo not drawn): 30
Cc1ccc(C2CNC(=O)C2C(=O)Nc2ccc(F)c(C)c2F)cc1F (stereo not drawn): 0
COCc1cccc(C2CNC(=O)C2C(=O)Nc2ccccc2F)c1 (stereo not drawn): 0
CN1CC(c2cccc(OC(F)(F)C(F)F)c2)C(C(=O)Nc2cccc(F)c2F)C1=O (stereo not drawn): 50
COc1ccc(NC(=O)C2C(=O)NCC2c2cccc(OC(F)F)c2)c(F)c1 (stereo not drawn): 0
O=C1NCC(c2ccc(Br)cc2)C1C(=O)Nc1cccc(F)c1F (stereo not drawn): 20
COc1ccc(NC(=O)C2C(=O)NCC2c2ccc(F)c(F)c2)c(F)c1 (stereo not drawn): 0

Please examine the following record next.
Request: Record request: Ryegrass, Italian plant response rating value, item CCc1ccc(C2CNC(=O)C2C(=O)Nc2cccc(F)c2F)cc1 (stereo not drawn)
Result: 0

====

- Test system: Kochia (Kochia scoparia)
- ASSAY EXPLANATION: Test A preemergence
- Type: in vivo
- TEST CONDITIONS: Bassia scoparia, pre-emergence, 240 h, 500 g ai/ha, preemergence; 0 to 100 scale, 0 = no effect, 100 = complete control; read-out: Plant response rating, Kochia
// values below are reported pest or weed control at 500 g/ha
Numeric answer only, unit % assumed.

Worked cases, answers included:
C=CCN1C[C@H](c2ccc(OC)c(F)c2)[C@@H](C(=O)Nc2ccccc2C(F)(F)F)C1=O: 0
O=C1NC[C@H](c2ccc3c(c2)OCO3)[C@H]1C(=O)Nc1cccc(F)c1F: 60
O=C1NC[C@H](c2cc(F)c(F)c(F)c2)[C@H]1C(=O)Nc1ccc(F)c(F)c1F: 70
O=C1NC[C@H](c2cccc(C(F)(F)F)c2)[C@H]1C(=O)Nc1ccccc1C1CC1: 0
O=C1NC[C@H](c2ccc3c(c2)OCO3)[C@H]1C(=O)Nc1ccccc1F: 0

With those in mind, consider the next molecule.
Request: Consider the molecule CN1C[C@H](c2cc(F)c(F)c(F)c2)[C@@H](C(=O)Nc2ccc(F)c(F)c2F)C1=O and give its measured pest or weed control at 500 g/ha.
Result: 70

====

- System: ragweed (common ragweed, Ambrosia elatior)
- ASSAY EXPLANATION: Test A preemergence
- Type: in vivo
- TEST CONDITIONS: Ambrosia artemisiifolia, pre-emergence, 240 h, 31 g ai/ha, Preemergence; 0 to 100 scale where 0 is no effect and 100 is complete control; read-out: Ragweed plant response rating
QUANTITY MEASURED: pest or weed control at 31 g/ha (%)
Just the number please, in %, no unit attached.

Request: What does the record list as pest or weed control at 31 g/ha for CN1C[C@H](c2csc3c2CCOC3)[C@@H](C(=O)Nc2ccccc2S(C)(=O)=O)C1=O ?
Result: 0

Request: Quick one: pest or weed control at 31 g/ha for CN1C[C@H](c2ccc(C(F)(F)F)cc2)[C@@H](C(=O)Nc2cccnc2F)C1=O ?
Result: 30

Request: Which measured pest or weed control at 31 g/ha value corresponds to Cc1c(F)cccc1NC(=O)[C@H]1C(=O)N(C)C[C@@H]1c1ccc(C(F)F)cc1 ?
Result: 50

Request: Value lookup for pest or weed control at 31 g/ha; key = CN1C[C@H](c2ccc(F)c(Oc3ccccc3)c2)[C@@H](C(=O)Nc2ccccc2S(C)(=O)=O)C1=O
Result: 0

Request: Name the recorded pest or weed control at 31 g/ha for O=C(Nc1ccc(F)c(F)c1F)[C@H]1C(=O)N(C2CC2)CC[C@@H]1c1ccc(F)cc1 .
Result: 0

Request: Which pest or weed control at 31 g/ha is reported for this molecule? CN1C[C@H](c2ccc(F)c(Oc3ccccc3)c2)[C@@H](C(=O)Nc2cccc(F)c2F)C1=O
Result: 0

Request: What value of measured pest or weed control at 31 g/ha is listed for O=C1NC[C@H](c2csc3c2CCC3)[C@H]1C(=O)Nc1cccc(F)c1F ?
Result: 0

====

- Tested on: Kochia (Kochia scoparia)
- ASSAY EXPLANATION: Test A postemergence
- Format: in vivo
- TEST CONDITIONS: 500 g ai/ha, postemergence; visual injury, 0 to 100 scale (0 no effect, 100 complete control), approx. 10 d
QUANTITY MEASURED: Plant response rating, Kochia

CN1CC(c2ccc(C(C)(F)F)cc2)C(C(=O)Nc2ccccc2S(C)(=O)=O)C1=O (stereo not shown) [Compound 692]: 60
O=C1NCC(c2csc(Br)c2)C1C(=O)Nc1ccccc1F (stereo not shown) [Compound 648]: 0

Request: What value of Plant response rating, Kochia has been reported for the following compound? Cc1ccc(C2CN(C)C(=O)C2C(=O)Nc2ccccc2C(F)(F)F)cc1 (stereo not shown) [Compound 665]
Result: 50

Request: Find the recorded Plant response rating, Kochia belonging to O=C1NCC(c2cccc3ccccc23)C1C(=O)Nc1ccccc1C(F)(F)F (racemic) [Compound 712] and report it.
Result: 0
